Target: human cannabinoid CB2 receptor (Homo sapiens)
Assay: Cannabinoid CB2 receptor agonist activity, yeast reporter assay (FDGlu fluorescence)
Description: The cannabinoid CB2 receptor agonist activity of the compounds of formula (I) was determined in accordance with the following experimental method. […] Agonists were prepared as 10 mM stocks in DMSO. […] Fluorescence was plotted against compound concentration and iteratively curve fitted using a four parameter fit to generate a concentration effect value. […]
pEC50: −log10 of the molar value.
value_kind: pEC50

Request: Bench note: what pEC50 did O=C(NCC1CCCCCC1)c1cnc(Nc2cccc(Cl)c2Cl)cc1C(F)(F)F show?
Response: > 6.52

Request: Bench note: what pEC50 did O=C(NCC1CCOCC1)c1cnc(Nc2ccc(Cl)cc2F)cc1C(F)(F)F show?
Response: > 6.52

Request: Bench note: what pEC50 did O=C(NCC1CCOCC1)c1ccc(Nc2cccc(Cl)c2)nc1C(F)(F)F show?
Response: > 6.52

Request: Bench note: what pEC50 did CC(C)c1cc(Nc2cccc(C#N)c2)ncc1C(=O)NCC1CCCC1 show?
Response: > 6.52

Request: Bench note: what pEC50 did O=C(NCC1CC1)c1cnc(Nc2cccc(Cl)c2)cc1C(F)(F)F show?
Response: > 6.52

Request: Bench note: what pEC50 did CC(C)c1cc(Nc2cc(C(F)(F)F)ccc2F)ncc1C(=O)NCC1CCOCC1 show?
Response: > 6.52

Request: Bench note: what pEC50 did CC(C)c1cc(Nc2cccc(OC(F)(F)F)c2)ncc1C(=O)NCC1CCCCC1 show?
Response: > 6.52

Request: Bench note: what pEC50 did Cc1cc(Cl)ccc1Nc1cc(C(C)C)c(C(=O)NCC2CCOCC2)cn1 show?
Response: > 6.52

Request: Bench note: what pEC50 did Cc1cccc(Nc2cc(C(C)C)c(C(=O)NCC3CCCCC3)cn2)c1 show?
Response: > 6.52

---

Target: human cannabinoid CB2 receptor (Homo sapiens)
Assay: Cannabinoid CB2 receptor agonist activity, yeast reporter assay (FDGlu fluorescence)
value_kind: EC50

Request: Bench note: what EC50 did CC(C)c1cc(Nc2ccc(Cl)cc2Br)ncc1C(=O)NCC1CCOCC1 show?
Response: < 300 nM

Request: Bench note: what EC50 did CC(C)c1cc(Nc2ccc(Br)c(F)c2)ncc1C(=O)NCC1CCOCC1 show?
Response: < 300 nM

Request: Bench note: what EC50 did O=C(NCC1CCCCC1)c1cnc(Nc2ccc(Cl)c(Cl)c2)cc1C(F)(F)F show?
Response: < 300 nM

Request: Bench note: what EC50 did O=C(NCC1CCC1)c1cnc(Nc2ccc(Cl)cc2Cl)cc1C(F)(F)F show?
Response: < 300 nM

Request: Bench note: what EC50 did CC(C)c1cc(Nc2cc(F)cc(F)c2)ncc1C(=O)NCC1CCC1 show?
Response: < 300 nM

Request: Bench note: what EC50 did CC(C)CNC(=O)c1cnc(Nc2cc(F)cc(F)c2)cc1C(C)C show?
Response: < 300 nM

Request: Bench note: what EC50 did CC(C)c1cc(Nc2ccc(Cl)cc2Br)ncc1C(=O)NCC1CCC1 show?
Response: < 300 nM

Request: Bench note: what EC50 did CC(C)c1cc(Nc2cc(F)ccc2Br)ncc1C(=O)NCC1CCOCC1 show?
Response: < 300 nM

Request: Bench note: what EC50 did O=C(NCC1CCCC1)c1cnc(Nc2ccc(Cl)c(Cl)c2)cc1C(F)(F)F show?
Response: < 300 nM

Request: Bench note: what EC50 did O=C(NCC1CCOCC1)c1cnc(Nc2cc(Cl)cc(Cl)c2)cc1C(F)(F)F show?
Response: < 300 nM

Request: Bench note: what EC50 did CC(C)c1cc(Nc2cc(Cl)ccc2Cl)ncc1C(=O)NCC1CCC1 show?
Response: < 300 nM

Request: Bench note: what EC50 did O=C(NC1CCC1)c1cnc(Nc2cccc(Cl)c2)cc1C(F)(F)F show?
Response: < 300 nM

Request: Bench note: what EC50 did O=C(NCC1CCCC1)c1cnc(Nc2cc(Cl)cc(Cl)c2)cc1C(F)(F)F show?
Response: < 300 nM

Request: Bench note: what EC50 did CC(C)(C)c1cc(Nc2ccc(Cl)cc2Cl)ncc1C(=O)NCC1CCCCC1 show?
Response: < 300 nM

Request: Bench note: what EC50 did O=C(NC1CCC1)c1cnc(Nc2ccc(Cl)cc2Cl)cc1C(F)(F)F show?
Response: < 300 nM

Request: Bench note: what EC50 did O=C(NCC1CC1)c1cnc(Nc2ccc(Cl)cc2Cl)cc1C(F)(F)F show?
Response: < 300 nM

Request: Bench note: what EC50 did CC(C)c1cc(Nc2cc(Cl)ccc2C#N)ncc1C(=O)NCC1CCOCC1 show?
Response: 300 to 1000 nM

Request: Bench note: what EC50 did COc1cccc(Nc2cc(C(C)C)c(C(=O)NCC3CCC3)cn2)c1 show?
Response: < 300 nM

---

Biological target: human cannabinoid CB2 receptor (Homo sapiens, UniProt P34972)
Construct: expressed in transfected cells; host or cells: Saccharomyces cerevisiae strain MMY23
Sequence (P34972 whole entry): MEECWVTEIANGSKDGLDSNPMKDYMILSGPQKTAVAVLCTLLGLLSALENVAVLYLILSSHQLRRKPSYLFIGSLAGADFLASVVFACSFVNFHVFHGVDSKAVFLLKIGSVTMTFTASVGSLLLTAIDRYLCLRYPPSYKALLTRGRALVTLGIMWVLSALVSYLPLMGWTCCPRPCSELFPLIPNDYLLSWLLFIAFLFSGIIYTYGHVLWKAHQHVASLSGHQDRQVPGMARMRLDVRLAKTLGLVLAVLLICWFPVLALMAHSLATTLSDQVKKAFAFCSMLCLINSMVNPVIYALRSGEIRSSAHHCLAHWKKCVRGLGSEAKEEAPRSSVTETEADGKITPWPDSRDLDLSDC
Assay: Cannabinoid CB2 receptor agonist activity, yeast reporter assay (FDGlu fluorescence);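 on Emax: 100% equals maximal response of reference agonist HU210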
Format: cell-based
Details: read-out: efficacy value (Emax) at the cloned human cannabinoid CB2 receptor
Experimental: The cannabinoid CB2 receptor agonist activity of the compounds of formula (I) was determined in accordance with the following experimental method. […] Agonists were prepared as 10 mM stocks in DMSO. […] Fluorescence was plotted against compound concentration and iteratively curve fitted using a four parameter fit to generate a concentration effect value. […]
value_kind: Emax

Request: Bench note: what Emax did O=C(NCC1CC1)c1cnc(Nc2cccc(Br)c2)cc1C(F)(F)F show?
Response: > 50%

Request: Bench note: what Emax did O=C(NCC1CCC1)c1cnc(Nc2ccc(F)cc2Cl)cc1C(F)(F)F show?
Response: > 50%

Request: Bench note: what Emax did Cc1ccc(Nc2cc(C(C)C)c(C(=O)NCC3CCOCC3)cn2)cc1Cl show?
Response: > 50%

Request: Bench note: what Emax did CC(C)c1cc(Nc2cccc(Cl)c2)ncc1C(=O)NC1CCOCC1 show?
Response: > 50%

Request: Bench note: what Emax did CC(C)c1cc(Nc2cccc(Br)c2)ncc1C(=O)NCC1CCC1 show?
Response: > 50%

Request: Bench note: what Emax did CC(C)c1cc(Nc2cc(Cl)ccc2F)ncc1C(=O)NCC1CCC1 show?
Response: > 50%

Request: Bench note: what Emax did CC(C)c1cc(Nc2ccc(C#N)cc2F)ncc1C(=O)NCC1CCC1 show?
Response: > 50%

Request: Bench note: what Emax did Cc1c(Cl)cccc1Nc1cc(C(C)C)c(C(=O)NCC2CCOCC2)cn1 show?
Response: > 50%

Request: Bench note: what Emax did CCC(CC)CNC(=O)c1cnc(Nc2cccc(Cl)c2)cc1C(C)C show?
Response: > 50%

---

Consider the following molecules; for each one, report its Emax.
Biological target: human cannabinoid CB2 receptor (Homo sapiens, UniProt P34972)
Construct: expressed in transfected cells; host or cells: Saccharomyces cerevisiae strain MMY23
Experiment: Cannabinoid CB2 receptor agonist activity, yeast reporter assay (FDGlu fluorescence);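 on Emax: 100% equals maximal response of reference agonist HU210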
Type: cell-based
Conditions: read-out: efficacy value (Emax) at the cloned human cannabinoid CB2 receptor

Request: Bench note: what Emax did CC(C)c1cc(Nc2ccc(Cl)c(Cl)c2)ncc1C(=O)NCC1CCOCC1 show?
Response: > 50%

Request: Bench note: what Emax did CC(C)c1cc(Nc2cccc(Cl)c2)ncc1C(=O)NCC1CCS(=O)(=O)C1 (centres unmarked) show?
Response: > 50%

Request: Bench note: what Emax did CC(C)c1cc(Nc2cc(Cl)ccc2C#N)ncc1C(=O)NCC1CCOCC1 show?
Response: < 30%

Request: Bench note: what Emax did CC(C)c1cc(Nc2ccc(C#N)c(Cl)c2)ncc1C(=O)NCC1CCOCC1 show?
Response: > 50%

Request: Bench note: what Emax did CC(C)c1cc(Nc2cccc(Cl)c2)ncc1C(=O)NC1CCCCC1 show?
Response: > 50%

---

Consider the following compounds; for each one, report its EC50.
Biological target: human cannabinoid CB2 receptor (Homo sapiens)
Test: Cannabinoid CB2 receptor agonist activity, yeast reporter assay (FDGlu fluorescence)

Request: Bench note: what EC50 did CC(C)c1cc(Nc2cc(F)cc(C(F)(F)F)c2)ncc1C(=O)NCC1CCOCC1 [Example 80] show?
Response: < 300 nM

Request: Bench note: what EC50 did CC(C)c1cc(Nc2ccc(Cl)cc2Cl)ncc1C(=O)NCC1CCCC1 [Example 31] show?
Response: < 300 nM

Request: Bench note: what EC50 did CC(C)c1nc(Nc2cccc(F)c2)ccc1C(=O)NCC1CCCC1 [Example 217] show?
Response: < 300 nM

Request: Bench note: what EC50 did CC(C)c1cc(Nc2cccc(F)c2)ncc1C(=O)NCC1CCCCC1 [Example 10] show?
Response: < 300 nM

Request: Bench note: what EC50 did CC(C)c1cc(Nc2cccc(Cl)c2)ncc1C(=O)NCC1CCC1 [Example 6] show?
Response: < 300 nM
